B1: KCNG1 (parent)
chain: LFVTVTAVNLSVSTLPSLREEEEQ

variants of: B1; test: protein stability index of a GFP-peptide fusion (GPS, HEK-293T) (PSI 1-6); higher = more stable; conditions: c terminus: a fixed tail appended;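 also: lentivirally expressed fusions sorted by FACS into six bins by GFP to DsRed ratio, PSI derived from sequencing read proportions per bin multiplied by bin number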
Each entry gets condition not met if its protein stability index stays under 2, and condition met if its protein stability index is 2 or above.

The examples below pair each entry with its known result.
* L18R | condition not met
* E22S | condition not met
* V3C | condition met
* L18W | condition met

Prompt: Does the reported protein stability index for `T4S` fall at or above the 2 mark?
Completion: condition not met

Prompt: Does the reported protein stability index for `L18T` fall at or above the 2 mark?
Completion: condition met

Prompt: Does the reported protein stability index for `S13Q` fall at or above the 2 mark?
Completion: condition not met
